# Tested on: PBMC
# experiment.description: Selectivity index, ratio of IC50 for human PBMC cells to IC50 for human SF295 cells
# Assay type: functional
Please assign false whenever Ratio IC50 is at or above 0.9, and true whenever it is below.

Look over these answered cases.
>>> category("CC1(C)OC2=C(C(=O)C(=O)c3ccccc32)C1Nc1ccc(C(=O)/C=C/c2ccc([N+](=O)[O-])cc2)cc1 (stereo unspecified)")
"false"
>>> category("CC1(C)OC2=C(C(=O)C(=O)c3ccccc32)C1n1cc(CNC2=C(Br)C(=O)c3ccccc3C2=O)nn1 (stereo unspecified)")
"true"
>>> category("CC1(C)OC2=C(C(=O)C(=O)c3ccccc32)C1n1cc(CNC2=C(Cl)C(=O)c3ccccc3C2=O)nn1 (stereo unspecified)")
"true"

Task: # check: Ratio IC50 < 0.9 for Nc1ccc(C(=O)/C=C/c2ccc([N+](=O)[O-])cc2)cc1
Result: true

Task: Cool, now Cc1ccc(/C=C/C(=O)c2ccc(NC3C4=C(OC3(C)C)c3ccccc3C(=O)C4=O)cc2)cc1 (stereo unspecified)
Result: false
